test system: PPARg:RXRa 90nM:30nM, anti-RXR (NR concentration 90 nM, RXRa partner concentration 30 nM); experiment: PBM binding z-score (relative to random genomic background probes); higher = stronger binding; sequences stand for … in GC…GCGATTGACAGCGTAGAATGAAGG
Decision: PBM binding z-score compared against 6; not below it gives 1, below it gives -1.

{"columns": ["CHAIN", "MEASURED TARGET", "CAT"],
 "data": [
  ["TCATATAGGTAATCAGGTGAAAGTCCGTAAGTTA", "PPARg:RXRa 90nM:30nM, anti-RXR (NR concentration 90 nM, RXRa partner concentration 30 nM)", -1],
  ["CCTGGCAGGCCAGGGTCACTCAAGCATTTCGCTT", "PPARg:RXRa 90nM:30nM, anti-RXR (NR concentration 90 nM, RXRa partner concentration 30 nM)", -1],
  ["CTATGTAGGTGAAGGGGGTCATTCAGTTTGAAAG", "PPARg:RXRa 90nM:30nM, anti-RXR (NR concentration 90 nM, RXRa partner concentration 30 nM)", 1],
  ["CTCGAAAGGTCGGTTGAGGTGACTATACGGATAA", "PPARg:RXRa 90nM:30nM, anti-RXR (NR concentration 90 nM, RXRa partner concentration 30 nM)", -1],
  ["CAAACTAGGTCAAAGGTCAGAGTCGAGCCAACCA", "PPARg:RXRa 90nM:30nM, anti-RXR (NR concentration 90 nM, RXRa partner concentration 30 nM)", 1],
  ["CTATATAGGTTAAGGGGGTCATTCAGTTTGAAAG", "PPARg:RXRa 90nM:30nM, anti-RXR (NR concentration 90 nM, RXRa partner concentration 30 nM)", 1],
  ["CGAACTAGGTCAAAGGACTGTGAAAGGCGACGTA", "PPARg:RXRa 90nM:30nM, anti-RXR (NR concentration 90 nM, RXRa partner concentration 30 nM)", 1],
  ["CACACTAGGTCAAAGGTCAAAGTCGAGCCAACCA", "PPARg:RXRa 90nM:30nM, anti-RXR (NR concentration 90 nM, RXRa partner concentration 30 nM)", 1],
  ["TCTTGTAGATCAAAGGTCAAGAAAGCCGAAGCCT", "PPARg:RXRa 90nM:30nM, anti-RXR (NR concentration 90 nM, RXRa partner concentration 30 nM)", 1],
  ["ATCGAAAGGTCGAAGGTGAGTACACCCACCCGAA", "PPARg:RXRa 90nM:30nM, anti-RXR (NR concentration 90 nM, RXRa partner concentration 30 nM)", -1],
  ["ATATGTAGGTTAAGGTCATTCAGAAAGTAGGGAA", "PPARg:RXRa 90nM:30nM, anti-RXR (NR concentration 90 nM, RXRa partner concentration 30 nM)", 1],
  ["TCGAGTAGGTTACGGGGGCATTCAGGGATGAAGA", "PPARg:RXRa 90nM:30nM, anti-RXR (NR concentration 90 nM, RXRa partner concentration 30 nM)", -1],
  ["CGAACTAGGTCAAAGGAGAGTGAAAGGCGACGTA", "PPARg:RXRa 90nM:30nM, anti-RXR (NR concentration 90 nM, RXRa partner concentration 30 nM)", 1],
  ["ATATGAAGGTTAGGGTCATTCAGAAAGTAGGGAA", "PPARg:RXRa 90nM:30nM, anti-RXR (NR concentration 90 nM, RXRa partner concentration 30 nM)", -1],
  ["CGAACTAGGTGACCAGGACAGTGAAGAGGTTGGA", "PPARg:RXRa 90nM:30nM, anti-RXR (NR concentration 90 nM, RXRa partner concentration 30 nM)", -1],
  ["ATCGAAAGGTCGCAGGTGAGTATACCCACCCGAA", "PPARg:RXRa 90nM:30nM, anti-RXR (NR concentration 90 nM, RXRa partner concentration 30 nM)", -1],
  ["CGTCCAAGGTAAGAGAGGTCAGTGAATGCCGAGT", "PPARg:RXRa 90nM:30nM, anti-RXR (NR concentration 90 nM, RXRa partner concentration 30 nM)", -1],
  ["CCGAGTAGGTTACGAGGGAGCATTCAGTGCGAAT", "PPARg:RXRa 90nM:30nM, anti-RXR (NR concentration 90 nM, RXRa partner concentration 30 nM)", -1],
  ["TAGCCTCGGTCATTGGGCCAGTATAGTACGCATC", "PPARg:RXRa 90nM:30nM, anti-RXR (NR concentration 90 nM, RXRa partner concentration 30 nM)", -1],
  ["ATCGAAAGGTCGACGAGGAGAGTATACACCGTTT", "PPARg:RXRa 90nM:30nM, anti-RXR (NR concentration 90 nM, RXRa partner concentration 30 nM)", -1],
  ["CCGAGTAGGTTACGAGGCGGCATTCAGTGCGAAT", "PPARg:RXRa 90nM:30nM, anti-RXR (NR concentration 90 nM, RXRa partner concentration 30 nM)", -1],
  ["CTAAGTAGGTTAAGGGGGTCATTCAGTTTGAAAG", "PPARg:RXRa 90nM:30nM, anti-RXR (NR concentration 90 nM, RXRa partner concentration 30 nM)", 1],
  ["CTATGTAAGTTAAGGGGGTCATTCAGTTTGAAAG", "PPARg:RXRa 90nM:30nM, anti-RXR (NR concentration 90 nM, RXRa partner concentration 30 nM)", -1],
  ["CCTACTGGGCCACTCAGAGGTCATTGATCATATG", "PPARg:RXRa 90nM:30nM, anti-RXR (NR concentration 90 nM, RXRa partner concentration 30 nM)", -1],
  ["ATCGAATGGTCGAGGTGAGTATAGAGAAAGGGAA", "PPARg:RXRa 90nM:30nM, anti-RXR (NR concentration 90 nM, RXRa partner concentration 30 nM)", -1],
  ["ATATGTAGGTGAGGGTCATTCAGAAAGTAGGGAA", "PPARg:RXRa 90nM:30nM, anti-RXR (NR concentration 90 nM, RXRa partner concentration 30 nM)", 1],
  ["CCTGCTAGGTCAAGGGTCAGCTAAAGCAGCTCGC", "PPARg:RXRa 90nM:30nM, anti-RXR (NR concentration 90 nM, RXRa partner concentration 30 nM)", 1],
  ["ACTAGTTGGTAAGCTGAGGTCACACACAATTCGG", "PPARg:RXRa 90nM:30nM, anti-RXR (NR concentration 90 nM, RXRa partner concentration 30 nM)", -1],
  ["GCTGCTAGGTAAGGTTGGTCAGCTAACGGGTACG", "PPARg:RXRa 90nM:30nM, anti-RXR (NR concentration 90 nM, RXRa partner concentration 30 nM)", -1],
  ["GCTCGGGGGACAAGGTCAGAGCTTTGTCCGTAGA", "PPARg:RXRa 90nM:30nM, anti-RXR (NR concentration 90 nM, RXRa partner concentration 30 nM)", -1],
  ["CCTTACGGGTCAGGAGGTTATAGCACGACGAGCG", "PPARg:RXRa 90nM:30nM, anti-RXR (NR concentration 90 nM, RXRa partner concentration 30 nM)", -1],
  ["AGACAAAGTTCAGGACGAGGTAACGTAAAGCACG", "PPARg:RXRa 90nM:30nM, anti-RXR (NR concentration 90 nM, RXRa partner concentration 30 nM)", -1],
  ["AGTCAAATTTCACTAGGTAACGTAAGATTCAGCT", "PPARg:RXRa 90nM:30nM, anti-RXR (NR concentration 90 nM, RXRa partner concentration 30 nM)", -1],
  ["CTATGTAGGTTAAGGGGGTCGTTCAGTTTGAAAG", "PPARg:RXRa 90nM:30nM, anti-RXR (NR concentration 90 nM, RXRa partner concentration 30 nM)", 1],
  ["GCTGCTAGGTCAACTGATGGTGAGCTAAAGCTCG", "PPARg:RXRa 90nM:30nM, anti-RXR (NR concentration 90 nM, RXRa partner concentration 30 nM)", -1],
  ["CCTTACGGGTCACTCTAGGTTATAGCATCGGAGT", "PPARg:RXRa 90nM:30nM, anti-RXR (NR concentration 90 nM, RXRa partner concentration 30 nM)", -1],
  ["TCTTGTTGATCAAAGGTTAAGAAAGCCGAAGCCT", "PPARg:RXRa 90nM:30nM, anti-RXR (NR concentration 90 nM, RXRa partner concentration 30 nM)", 1],
  ["CCGAGTAGGTGACGAGGGGGCATTCAGTGCGAAT", "PPARg:RXRa 90nM:30nM, anti-RXR (NR concentration 90 nM, RXRa partner concentration 30 nM)", -1],
  ["CAATCTAGGTCAAAGGTCAAAGTCGAGCCAACCA", "PPARg:RXRa 90nM:30nM, anti-RXR (NR concentration 90 nM, RXRa partner concentration 30 nM)", 1],
  ["AGAGTGAGGTTACCAAAGATCAGGGAAACGCTTG", "PPARg:RXRa 90nM:30nM, anti-RXR (NR concentration 90 nM, RXRa partner concentration 30 nM)", -1],
  ["CGTCGAAGGTCAATGCTAGGTCAGTGAAAGCATT", "PPARg:RXRa 90nM:30nM, anti-RXR (NR concentration 90 nM, RXRa partner concentration 30 nM)", -1],
  ["GATACAGGGTCAAGGCCAGAATACGCGTATTGAT", "PPARg:RXRa 90nM:30nM, anti-RXR (NR concentration 90 nM, RXRa partner concentration 30 nM)", -1],
  ["ACTCGGAGGACAAAGGTAAGAGCTACGCCAGTGA", "PPARg:RXRa 90nM:30nM, anti-RXR (NR concentration 90 nM, RXRa partner concentration 30 nM)", -1],
  ["TTTAGTTGGTCAAAGGTCACACACTCGAAATGCG", "PPARg:RXRa 90nM:30nM, anti-RXR (NR concentration 90 nM, RXRa partner concentration 30 nM)", 1],
  ["CCTTACGGGTCAGTGACAGGTTATAGCATTTGGA", "PPARg:RXRa 90nM:30nM, anti-RXR (NR concentration 90 nM, RXRa partner concentration 30 nM)", -1],
  ["ACTAGTTGGTCAGCTGGGGTCACACACAATTCGG", "PPARg:RXRa 90nM:30nM, anti-RXR (NR concentration 90 nM, RXRa partner concentration 30 nM)", -1],
  ["CCTTACGGGTCTCTCCAGGTTATAGCATCGGAGT", "PPARg:RXRa 90nM:30nM, anti-RXR (NR concentration 90 nM, RXRa partner concentration 30 nM)", -1]
]}
